Ref: ChEMBL document CHEMBL1132918

# Test system: Breast carcinoma cell
# Assay Info: Inhibitory activity against breast cell line
# Format: functional, cell-based
# Assay Conditions: Homo sapiens, Breast carcinoma cell
True if IC50 is below 30 µM. False if not; exact matches included in False.

>>> print(df.to_string())
                                   molecule  class_label
0  COc1cc([C@H]2c3[nH]c4ccccc4c3C[C@H]3C(=O)N4CCC[C@H]4C(=O)N23)cc(OC)c1O        False
1  COc1cc([C@@H]2c3[nH]c4ccccc4c3C[C@H]3C(=O)N4CCC[C@H]4C(=O)N23)cc(OC)c1OC        False
2  O=C1[C@@H]2Cc3c([nH]c4ccccc34)[C@@H](c3ccccc3)N2C(=O)[C@@H]2CCCN12        False
3  O=C1[C@@H]2Cc3c([nH]c4ccccc34)[C@H](c3ccccc3)N2C(=O)[C@@H]2CCCN12        False
4  COc1cc(CN2C(=O)[C@@H]3CCCN3C(=O)[C@@H]2Cc2c[nH]c3ccccc23)cc(OC)c1OC        False
5  COc1cc([C@@H]2c3[nH]c4ccccc4c3C[C@H]3C(=O)NCC(=O)N23)cc(OC)c1OC (relative stereo)         True
6  O=C1[C@@H]2CCCN2C(=O)[C@H](Cc2c[nH]c3ccccc23)N1C/C=C/c1ccccc1         True

---

Below is a list of entries, each paired with its recorded pIC50 value.
# System: Colon cell
# Assay Info: Inhibitory activity against Colon cell line
# Format: functional, cell-based
# Assay Conditions: Homo sapiens, Colon cell
pIC50: −log10 of the molar value.
Test Readout: pIC50

>>> print(df.to_string())
                                   molecule  test_readout  measurement_qualifier  measured_number
0  COc1cc([C@H]2c3[nH]c4ccccc4c3C[C@H]3C(=O)N4CCC[C@H]4C(=O)N23)cc(OC)c1OC         pIC50                      =             4.03
1  O=C1[C@@H]2Cc3c([nH]c4ccccc34)[C@@H](c3ccccc3)N2C(=O)[C@@H]2CCCN12         pIC50                      =             4.34
2  CC(C)=CCN1C(=O)[C@@H]2CCCN2C(=O)[C@@H]1Cc1c[nH]c2ccccc12 (stereo in doubt)         pIC50                      =             4.02
3  COc1cc([C@H]2c3[nH]c4ccccc4c3C[C@H]3C(=O)NCC(=O)N23)cc(OC)c1O (relative stereo)         pIC50                      <             4.00
4  COc1cc(CN2C(=O)[C@@H]3CCCN3C(=O)[C@@H]2Cc2c[nH]c3ccccc23)cc(OC)c1OC         pIC50                      =             4.52
5  COc1cc([C@@H]2c3[nH]c4ccccc4c3C[C@H]3C(=O)NCC(=O)N23)cc(OC)c1O (relative stereo)         pIC50                      =             4.33
6  CC(C)C[C@H]1c2[nH]c3ccccc3c2C[C@H]2C(=O)N3CCC[C@H]3C(=O)N21         pIC50                      =             4.17
